protocol: Plasma concentration in rat at 5 mg/kg, po at 30 mins
Format: ADME, organism-based
Design: dose 5 mg/kg, route oral
endpoint: concentration at 0.5 h (ng/mL)

INSERT INTO results (compound, endpoint, units_of_measure, recorded_number) VALUES
  ('Cn1nnc(-c2ccc(F)c3c(C(=O)C(=O)N4CCN(C(=O)c5ccccc5)CC4)c[nH]c23)n1', 'concentration at 0.5 h', 'ng/mL', 72);

(1) CC(C)(C)C(=O)OCn1nnc(-c2ccc(F)c3c(C(=O)C(=O)N4CCN(C(=O)c5ccccc5)CC4)c[nH]c23)n1
(2) CC(=O)OCn1nnc(-c2ccc(F)c3c(C(=O)C(=O)N4CCN(C(=O)c5ccccc5)CC4)c[nH]c23)n1
(3) O=C(C(=O)N1CCN(C(=O)c2ccccc2)CC1)c1c[nH]c2c(-c3nn[nH]n3)ccc(F)c12
Arrange the 3 compounds from largest to smallest concentration at 0.5 h. Use the labels to give the requested order. 2, 1, 3
(2: 261 ng/mL, 1: 60 ng/mL, 3: 19 ng/mL)

###

protocol: Cytotoxicity against human HeLa cells by XTT assay
Type: cell-based
endpoint: CC50 (µM)
State just the number; it will be interpreted in µM.

INSERT INTO results (compound, units_of_measure, recorded_number) VALUES
  ('CC(=O)OCn1nnc(-c2ccc(F)c3c(C(=O)C(=O)N4CCN(C(=O)c5ccccc5)CC4)c[nH]c23)n1', 'µM', 36);

So what's the measured CC50 for this one? CC(C)(C)C(=O)OCn1nnc(-c2ccc(F)c3c(C(=O)C(=O)N4CCN(C(=O)c5ccccc5)CC4)c[nH]c23)n1 228

###

protocol: Oral bioavailability in rat at 5 mg/kg
Format: ADME, organism-based
condition_set: in vivo
endpoint: bioavailability (%)

(1) O=C(O)c1c(Cc2ccc(-c3ccccc3-c3nn[nH]n3)cc2)c(C2CC2)nc2ccccc12
(2) CC(C)C(OC(=O)C(C)(C)C)n1nnc(-c2ccccc2-c2ccc(Cc3c(C4CC4)nc4ccccc4c3C(=O)O)cc2)n1 (configuration not stated)
Which of the two items, 1 and 2 , has the greater recorded bioavailability? When you have decided, please share the label of that item. 2
(2: 39%, 1: 11%)

###

protocol: Permeability across human Caco2 cells assessed as drug recovery at pH 6.5
Format: ADME, cell-based
condition_set: caco-2, pH 6.5, read-out: Drug recovery
endpoint: recovery

So what's the measured recovery for this one? CC(=O)OCn1nnc(-c2ccc(F)c3c(C(=O)C(=O)N4CCN(C(=O)c5ccccc5)CC4)c[nH]c23)n1 < 70%

###

protocol: Plasma concentration in rat at 5 mg/kg, po at 120 mins
Format: ADME, organism-based
Set-up: dose 5 mg/kg, route oral
endpoint: concentration at 2 h (ng/mL)

INSERT INTO measurements (compound, endpoint, recorded_number) VALUES
  ('CC(=O)OCn1nnc(-c2ccc(F)c3c(C(=O)C(=O)N4CCN(C(=O)c5ccccc5)CC4)c[nH]c23)n1', 'concentration at 2 h', 378);

(a) O=C(C(=O)N1CCN(C(=O)c2ccccc2)CC1)c1c[nH]c2c(-c3nn[nH]n3)ccc(F)c12
(b) Cn1nnc(-c2ccc(F)c3c(C(=O)C(=O)N4CCN(C(=O)c5ccccc5)CC4)c[nH]c23)n1
Which of the two items, a and b , has the greater recorded concentration at 2 h? When you have decided, please share the label of that item. b
